Target: T1, human neuropeptide Y2 receptor (human, UniProt P49146 1-381)
T1 sequence (looked up): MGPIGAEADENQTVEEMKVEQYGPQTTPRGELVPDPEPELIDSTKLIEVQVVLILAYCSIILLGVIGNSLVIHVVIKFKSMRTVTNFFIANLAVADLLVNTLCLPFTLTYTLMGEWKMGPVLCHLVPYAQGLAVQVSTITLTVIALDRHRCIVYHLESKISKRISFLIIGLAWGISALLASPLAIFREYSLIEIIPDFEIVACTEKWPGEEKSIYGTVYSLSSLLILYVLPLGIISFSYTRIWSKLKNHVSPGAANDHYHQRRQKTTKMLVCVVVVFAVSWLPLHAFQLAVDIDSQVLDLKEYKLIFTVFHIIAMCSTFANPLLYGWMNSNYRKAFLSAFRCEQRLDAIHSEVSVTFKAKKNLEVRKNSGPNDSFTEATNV
Experiment: cell-based or functional assay
Starred links: 1 amine or outer side, 2 acyl side, 3 side chain; linkers in the order of their positions; H or OH if unused. Non-standard residues stand in square brackets, D forms with d. Groups on a side chain read outwards from the residue. No end group written: not given here. *: point of attachment. C20 diacid = O=C(O)CCCCCCCCCCCCCCCCCCC(=O)*; C18 diacid = O=C(O)CCCCCCCCCCCCCCCCC(=O)*; γGlu = O=C(O)[C@H](CCC(=O)[*:2])N[*:1]; εLys = N[C@@H](CCCCN[*:1])C(=O)[*:2]; AEEA = NCCOCCOCC(=O)O; Aib = CC(C)(N)C(=O)O
Just a reminder that ties go to Not satisfied: only EC50 CreLuc hNPY2R 0.5% hP strictly below 0.01 µM counts as Satisfied.

Take the binder YXEGTFTSDYSIXLEKQAQXAFVEWLIKGGPRSGASLRHYYNWLTRQRY (Aib at 2, 13, 20; K28 side chain: C20DA-gGlu-gGlu-gGlu-gGlu-gGlu-gGlu-eLys; C-terminal NH2) [Compound 168] and say whether its EC50 CreLuc hNPY2R 0.5% hP is less than 0.01 µM. Satisfied

Take the binder Y[Aib]EGTFTSDYSI[Aib]LEKQAQ[Aib]AFVQWLIK([εLys-γGlu-γGlu-γGlu-Glu-γGlu-γGlu-γGlu-C20 diacid])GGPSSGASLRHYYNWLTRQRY-NH2 [Compound 92] and say whether its EC50 CreLuc hNPY2R 0.5% hP is less than 0.01 µM. Satisfied

Take the binder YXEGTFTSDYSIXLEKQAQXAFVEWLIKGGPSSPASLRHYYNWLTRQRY (Aib at 2, 13, 20; K28 side chain: C18DA-gGlu-gGlu-gGlu-gGlu-gGlu-OEG-OEG; C-terminal NH2) [Compound 140] and say whether its EC50 CreLuc hNPY2R 0.5% hP is less than 0.01 µM. Not satisfied

Take the binder Y[Aib]EGTFTSDYSI[Aib]LEKQAQ[Aib]AFVQWLIK([εLys-γGlu-γGlu-γGlu-γGlu-γGlu-C18 diacid])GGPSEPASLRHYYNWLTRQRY-NH2 [Compound 148] and say whether its EC50 CreLuc hNPY2R 0.5% hP is less than 0.01 µM. Not satisfied

Take the binder YXEGTFTSDYSIXLEKQAQXAFIEWLIKGGPSSGASLRHYYNWLTRQRY (Aib at 2, 13, 20; K28 side chain: C20DA-gGlu-gGlu-gGlu-Glu-gGlu-gGlu-eLys; C-terminal NH2) [Compound 130] and say whether its EC50 CreLuc hNPY2R 0.5% hP is less than 0.01 µM. Not satisfied

Take the binder Y[Aib]EGTFTSDYSI[Aib]LEKQAE[Aib]AFVQWLIK([AEEA-AEEA-γGlu-γGlu-γGlu-γGlu-C18 diacid])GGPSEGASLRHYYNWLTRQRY-NH2 [Compound 156] and say whether its EC50 CreLuc hNPY2R 0.5% hP is less than 0.01 µM. Not satisfied

Take the binder Y[Aib]EGTFTSDYSI[Aib]LEKQAQ[Aib]AFVEWLIKGGPSSYASLRHYYNWLTRQRY-NH2 (not fully specified (residue 28)) [Compound 126] and say whether its EC50 CreLuc hNPY2R 0.5% hP is less than 0.01 µM. Not satisfied

Take the binder Y[Aib]EGTFTSDYSI[Aib]LEKQAQ[Aib]AFVEWLIK([AEEA-AEEA-γGlu-γGlu-γGlu-C18 diacid])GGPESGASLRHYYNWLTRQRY-NH2 [Compound 166] and say whether its EC50 CreLuc hNPY2R 0.5% hP is less than 0.01 µM. Not satisfied

Take the binder Y[Aib]EGTFTSDYSI[Aib]LEEQAQ[Aib]AFVEWLIKGGPSSGASLRHYYNWLTRQRY-NH2 (not fully specified (residue 28)) [Compound 100] and say whether its EC50 CreLuc hNPY2R 0.5% hP is less than 0.01 µM. Not satisfied
